Target: NGF (nerve growth factor) (Homo sapiens, UniProt P01138 P01138:122-241)
Sequence (P01138 122-241, one chain of several): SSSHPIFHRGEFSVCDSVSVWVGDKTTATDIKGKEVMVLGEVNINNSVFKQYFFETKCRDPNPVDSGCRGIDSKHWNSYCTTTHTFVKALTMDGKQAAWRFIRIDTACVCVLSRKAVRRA
Test: cell_activity; neurite; TF-1 0.037
Conditions: tags: R&D Systems; chain copies: 2
The reader will find reported pIC50 values listed item by item below.
pIC50 field: float, defined as -log10 of concentration (mol/L).

| BINDER | pIC50 |
| --- | --- |
| GGGUCCUGGAUAAGAGTUUCCGUCUCGUAUCCTGUUACCC (ssRNA, as 82(48) except dT17,dT33) [SEQ ID NO: 167] | 9.89 |

We now examine a further binder.
**Query** Supply recorded pIC50 for GGGUCCUGGAUAAGAGTUUCCGUCUCGUAUCCTGUUACCC (ssRNA, as 82(48) except dT17,dT33,dU36) [SEQ ID NO: 166] here.
**Result** 9.95
